Test system: CYP2C9
Test: in vitro
Details: Sprague-Dawley, rat, microsomes, pH 7.4, % inhibition of tolbutamide metabolism in microsomes, 1 μM; reaction time 7.5 minute, n = 3
EXPERIMENTAL_ENDPOINT: inhibition at 7.5 min, 1 μM (%)
Give bare numbers, in %.

// field: inhibition at 7.5 min, 1 μM; key: O=c1c(-c2ccc(O)cc2)coc2cc(O)cc(O)c12 ; value = 49.6

* * *

Tested on: CYP2C9
Test: in vitro
Conditions: Sprague-Dawley, rat, microsomes, pH 7.4, % inhibition of CYP2C9 activity
Label class 1 when inhibition at 7.5 min, 1 μM >= 20%; otherwise class 0.

[
  {
    "MOLECULE": "O=c1ccc2ccc(O)cc2o1",
    "CAT": "class 0"
  },
  {
    "MOLECULE": "CC(C)[C@@H](C)/C=C/[C@@H](C)[C@H]1CC[C@H]2C3=CC=C4C[C@@H](O)CC[C@]4(C)[C@H]3CC[C@]12C",
    "CAT": "class 0"
  },
  {
    "MOLECULE": "COc1ccc([C@@H]2CC(=O)c3c(O)cc(O)cc3O2)cc1O",
    "CAT": "class 0"
  },
  {
    "MOLECULE": "O=c1c(O)c(-c2cc(O)c(O)c(O)c2)oc2cc(O)cc(O)c12",
    "CAT": "class 0"
  }
]

Form field: inhibition at 7.5 min, 1 μM at least 20%? Entry: O=C(O)c1cc(O)c(O)c(O)c1
class 0

Is reported inhibition at 7.5 min, 1 μM greater than or equal to 20% here: O=C(O)/C=C/c1ccccc1 [trans-cinnamic acid]
class 1

Given O=c1c(O[C@@H]2O[C@H](CO)[C@@H](O)[C@H](O)[C@H]2O)c(-c2ccc(O)c(O)c2)oc2cc(O)cc(O)c12 , state whether its inhibition at 7.5 min, 1 μM is at least 20%.
class 1

Does inhibition at 7.5 min, 1 μM meet or surpass 20% for COc1ccc([C@@H]2CC(=O)c3c(O)cc(O[C@@H]4O[C@H](CO)[C@@H](O)[C@H](O)[C@H]4O[C@@H]4O[C@@H](C)[C@H](O)[C@@H](O)[C@H]4O)cc3O2)cc1 ?
class 0

Form field: inhibition at 7.5 min, 1 μM at least 20%? Entry: COc1ccc(-c2cc(=O)c3c(O)cc(O[C@@H]4O[C@H](CO[C@@H]5O[C@@H](C)[C@H](O)[C@@H](O)[C@H]5O)[C@@H](O)[C@H](O)[C@H]4O)cc3o2)cc1O
class 0

State whether the measured inhibition at 7.5 min, 1 μM reaches 20%, counting equality as reaching it, for CC(Cc1ccc(O)c(O)c1)C(C)Cc1ccc(O)c(O)c1 (stereo not drawn) [Nordihydroguaiaretic acid]
class 0

Quick check: does CC(=O)OCCCc1ccccc1 [3-Phenylpropyl Acetate] have inhibition at 7.5 min, 1 μM greater than or equal to 20%?
class 1
